Cited source: patent US4001263A

# System: amphetamine-induced symptoms in rats
# assay-comment: antagonism of amphetamine-induced symptoms in rats (block of characteristic amphetamine cage movement behavior)
# Assay type: in vivo
# condition-parameters: Rattus norvegicus, ip; rats, i.p.; d-amphetamine sulfate 5 mg./kg. i.p. given 24 hrs. after test compound; read-out: ED50 to antagonize or block amphetamine behavior, 24 hrs.
Structures can show the parent of a compound that is named as a salt.
measurement-kind: ED50

# example entries with known answers
compound=CCCN1CCc2c(c3cc(F)ccc3n2-c2ccc(F)cc2)C1 result="> 3.2 mg/kg"
compound=Fc1ccc(C=CCCN2CCc3c(c4cc(F)ccc4n3-c3ccc(F)cc3)C2)cc1 result="> 3.2 mg/kg"

Q: Please provide the recorded ED50 for CC(C)(C)CCN1CCc2c(c3cc(F)ccc3n2-c2ccc(F)cc2)C1 , tested on amphetamine-induced symptoms in rats.
Result: > 10 mg/kg

Q: Please provide the recorded ED50 for CCN1CCc2c(c3cc(F)ccc3n2-c2ccc(F)cc2)C1 [F, F, C2H5, hydrochloride] , tested on amphetamine-induced symptoms in rats.
Result: > 10 mg/kg
